The values you see were collected from patent US20170050957A1.

# System: Key Grass and Sedge Weeds as well as Grass Crops
# assay_info: Post-emergent Test II herbicidal activity (Table 16)
# Type: in vivo
# setup_conditions: Triticum aestivum, post-emergence, 336 h, wheat, spring (Triticum aestivum), 70 g ai/ha, 14 d, read-out: Visual Growth Reduction (%) 14 Days After Application, TRZAS
property_label: pest or weed control at 70 g/ha

1. COC(=O)c1nc(-c2ccc3cc[nH]c3c2)c(C)c(N)c1Cl = 30 to 44%
2. C=Cc1c(N)nc(-c2ccc3cc[nH]c3c2F)nc1C(=O)O = 0 to 29%
3. COC(=O)c1nc(-c2ccc(Cl)c3cc[nH]c23)c(F)c(N)c1Cl = 0 to 29%
4. COC(=O)c1nc(-c2c(F)cc3cc[nH]c3c2F)cc(N)c1Cl = 0 to 29%
5. COC(=O)c1nc(-c2ccc(Cl)c3occc23)nc(N)c1OC = 0 to 29%
6. Nc1cc(-c2ccc3cc[nH]c3c2)nc(C(=O)O)c1Cl = 0 to 29%
7. COc1c(C(=O)O)nc(-c2ccc3cc[nH]c3c2F)c(F)c1N = 60 to 74%
8. COC(=O)c1nc(-c2cccc3occc23)c(F)c(N)c1Cl = 0 to 29%
9. COc1c(N)nc(-c2cc3[nH]ccc3cc2F)nc1C(=O)O = 0 to 29%
10. Nc1nc(-c2ccc(Cl)c3occc23)nc(C(=O)O)c1Cl = 0 to 29%
11. COC(=O)c1nc(-c2ccc(Cl)c3occc23)c(F)c(N)c1Cl = 0 to 29%
12. COC(=O)c1nc(-c2cc3occc3cc2F)c(F)c(N)c1Cl = 30 to 44%
13. COC(=O)c1nc(-c2cccc3cc[nH]c23)c(F)c(N)c1Cl = 0 to 29%
14. Nc1cc(-c2cc3[nH]ccc3cc2F)nc(C(=O)O)c1Cl = 0 to 29%
15. Nc1c(F)c(-c2ccc3[nH]ccc3c2)nc(C(=O)O)c1Cl = 0 to 29%
16. COC(=O)c1nc(-c2cc3ccoc3cc2F)nc(N)c1OC = 0 to 29%
17. COC(=O)c1nc(-c2ccc3ccn(C)c3c2)c(F)c(N)c1Cl = 0 to 29%
18. COC(=O)c1nc(-c2cccc3[nH]ccc23)c(F)c(N)c1Cl = 0 to 29%
19. COC(=O)c1nc(-c2ccc3cc[nH]c3c2F)nc(N)c1Cl = 0 to 29%
20. COC(=O)c1nc(-c2ccc3sccc3c2)c(F)c(N)c1Cl = 30 to 44%
21. COC(=O)c1nc(-c2ccc3cc[nH]c3c2)c(F)c(N)c1Cl = 0 to 29%
22. COC(=O)c1nc(-c2ccc3cc[nH]c3c2)c(Cl)c(N)c1Cl = 30 to 44%
23. C=Cc1c(C(=O)O)nc(-c2ccc3cc[nH]c3c2F)c(F)c1N = 75 to 84%
24. COC(=O)c1nc(-c2ccc(Cl)c3occc23)nc(N)c1Cl = 0 to 29%
25. Nc1c(F)c(-c2ccc3occc3c2)nc(C(=O)O)c1Cl = 30 to 44%

* * *

# System: Key Broadleaf Weed and Crop Species
# assay_info: Post-emergent Test II herbicidal activity (Table 15)
# Format: in vivo
# setup_conditions: Abutilon theophrasti, post-emergence, 336 h, velvetleaf (Abutilon theophrasti), 70 g ai/ha, 14 d, read-out: Visual Growth Reduction (%) 14 Days After Application, ABUTH
Reported pest or weed control at 70 g/ha is given for each of the following compounds.
property_label: pest or weed control at 70 g/ha

1) COC(=O)c1nc(-c2ccc3ncn(C)c3c2)c(F)c(N)c1Cl [Compound 7.02] = 0 to 29%
2) COC(=O)c1nc(-c2ccc3ccoc3c2F)cc(N)c1Cl [Compound 2.11] = 95 to 100%
3) COC(=O)c1nc(-c2ccc3sccc3c2)nc(N)c1OC [Compound 3.08] = 30 to 44%
